This collection of values is drawn from paper PMC5540273.

System: NEK11
Details: concentration: 1 μM,replicates: in singlicate; n = 1;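 further: KINOMEscan kinase panel screen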
measurement-label: %Inh (%)

# molecule, measurement-label, measurement
records = [
    ("Cn1ccc2ncnc(Oc3ccc(NC(=O)Nc4cccc(C(F)(F)F)c4)c(Cl)c3)c21", "%Inh", 0),
    ("C[C@@H]1CNc2c(sc3ccc4nc(-c5ccc(O)cc5)ccc4c23)C(=O)N1", "%Inh", 0),
    ("CC(=O)Nc1ccc(-c2cc3ncnc(SCC(=O)O)c3s2)cc1", "%Inh", 0),
    ("O=C(NOCC1CC1)c1cc(Br)c(F)c(F)c1Nc1ccc(I)cc1Cl", "%Inh", 0),
    ("N#Cc1cccc(C(=O)NC2CCN(c3ccnc(Nc4ccc(F)cc4)n3)C2)c1 (stereo not drawn)", "%Inh", 3),
    ("Cn1ccc2ncnc(Oc3ccc(NC(=O)Nc4ccnc(C(F)(F)F)c4)c(Cl)c3)c21", "%Inh", 0),
    ("O=c1[nH]cc(-c2ccc(O)cc2)c2sc(-c3ccncc3)cc12", "%Inh", 23),
    ("COC(=O)c1cccc(NC(=O)NC2CCN(c3ccnc(NCc4ccc(F)cc4)n3)CC2)c1", "%Inh", 7),
    ("C[C@@H]1CNc2c(sc3ccc4nc(-c5ccncc5)ccc4c23)C(=O)N1", "%Inh", 0),
]

----------
System: CDK11
Construct: gene CDK19
Details: concentration: 1 μM,replicates: in singlicate; n = 1
As shown below, each of these compounds has a reported %Inh value.

# compound, %Inh (%)
rows = [
    ("COc1cccc(CNC(=O)NC2CCN(c3ccnc(Nc4cc(OC)c(OC)c(OC)c4)n3)C2)c1 (centres unmarked) [GSK1379765]", 22),
    ("OCCn1cc(-c2cnc3nnn(Cc4ccc5ncccc5c4)c3n2)cn1", 0),
    ("Cc1cccc(-c2nc(Nc3ccncc3)c3sccc3n2)n1 [GW869641]", 8),
    ("C[C@@H](Oc1cc(-n2cnc3cc(-c4cnn(C)c4)ccc32)sc1C(N)=O)c1ccccc1Cl [GSK580432]", 28),
    ("Cc1ccc(C(=O)Nc2ccc(Oc3ccc4nc(NC(=O)C5CC5)cn4c3)c(F)c2)c(=O)n1-c1ccccc1", 88),
    ("O=C(Nc1ccc(Oc2ccc3nc(NC(=O)C4CC4)cn3n2)c(F)c1)c1cccn(-c2ccccc2)c1=O", 28),
    ("Cn1ccc2ncnc(Oc3ccc(NC(=O)Nc4ccnc(C(F)(F)F)c4)c(Cl)c3)c21", 98),
    ("CS(=O)(=O)c1cccc(CNc2nc(Nc3ccc4c(c3)[C@@H]3C[C@@H]4CNC3=O)ncc2C(F)(F)F)c1", 0),
]

----------
System: BLK
Details: concentration: 1 μM,replicates: in singlicate; n = 1
measurement-label: %Inh (%)

# compound, tested-target, measurement-label, measurement
rows = [
    ("CS(=O)c1ccc(-c2coc3ccc(-c4n[nH]c(=O)o4)cc23)cc1 (stereo not drawn)", "BLK", "%Inh", 4),
    ("FC(F)(F)c1cc(Br)cc(Nc2nccc(-c3cnn4ncccc34)n2)c1", "BLK", "%Inh", 0),
    ("CN(c1ccccc1CNc1nc(Nc2ccc3c(c2)CC(=O)N3)ncc1C(F)(F)F)S(C)(=O)=O", "BLK", "%Inh", 64),
    ("c1ccc(Oc2ccc(Nc3ccnc4ccc(-c5ccccn5)cc34)cc2)cc1", "BLK", "%Inh", 90.2),
    ("C[C@@H]1CNc2c(sc3ccc4nc(-c5ccncc5)ccc4c23)C(=O)N1", "BLK", "%Inh", 0),
    ("C[C@@H]1CCN(C(=O)N2CCCC2)C[C@@H]1N(C)c1ncnc2[nH]ccc12", "BLK", "%Inh", 0),
    ("Cl.c1ccc(Oc2ccc(Nc3ccnc4cc(-c5ccc(CN6CCNCC6)o5)ccc34)cc2)nc1", "BLK", "%Inh", 86),
    ("Cc1ccc2c(-c3ccnc(Nc4ccc(C(F)(F)F)cc4)n3)cnn2n1", "BLK", "%Inh", 0),
    ("COc1ccc(Nc2nccc(N3CCC(NC(=O)c4cccc(C#N)c4)C3)n2)cc1 (stereo not drawn)", "BLK", "%Inh", 38),
]

----------
As shown below, each of these molecules has a reported %Inh value.
System: TEC
Details: concentration: 1 μM,replicates: in singlicate; n = 1
measurement-label: %Inh (%)

# molecule, measurement
measured = [
    ("CCN1CCN(CCCC(=O)Nc2n[nH]c3nc(-c4ccc(O)cc4)c(Br)cc23)CC1", 0),
    ("C[C@@H]1CCN(C(=O)N2CCCC2)C[C@@H]1N(C)c1ncnc2[nH]ccc12", 0),
    ("N#Cc1cccc(C(=O)NC2CCN(c3ccnc(Nc4ccc(F)cc4)n3)C2)c1 (stereo not drawn)", 0),
    ("Cl.Cl.NC[C@H](CC1CCCCC1)NC(=O)c1ccc(-c2ccnc3[nH]ccc23)s1", 0),
    ("COC(=O)c1cccc(NC(=O)NC2CCN(c3ccnc(NCc4ccc(F)cc4)n3)CC2)c1", 15),
    ("Cl.c1ccc(Oc2ccc(Nc3ccnc4cc(-c5ccc(CN6CCNCC6)o5)ccc34)cc2)nc1", 26),
    ("O=C(Nc1cccc(Oc2ccc3nccn3n2)c1)Nc1cccc(C(F)(F)F)c1", 0),
    ("COC(=O)Nc1nc2cc(Oc3ccc(NC(=O)Nc4cc(C(F)(F)F)ccc4Cl)cc3)ccc2[nH]1.Cl", 15),
    ("O=C(Nc1n[nH]c2cc(-c3ccco3)ccc12)C1CC1", 2),
    ("CN1CCN(CCCNc2nccc(-c3c(-c4ccc(F)cc4)nn4cc(C(N)=O)ccc34)n2)CC1", 8),
    ("COc1ccc(Nc2nccc(N3CCC(NC(=O)c4cccc(C#N)c4)C3)n2)cc1 (stereo not drawn)", 0),
    ("CCNCC(Cc1ccccc1)NC(=O)c1cc(Br)c(-c2ccnc3[nH]ccc23)s1.Cl.Cl (stereo not drawn)", 0),
]

----------
As shown below, each of these compounds has a reported %Inh value.
System: TYK2(JH1domain-catalytic)
Details: concentration: 1 μM,replicates: in singlicate; n = 1
measurement-label: %Inh (%)

# compound, tested-target, u, measurement
measured = [
    ("Cc1ccc2c(-c3ccnc(Nc4ccc(C(F)(F)F)cc4)n3)cnn2n1", "TYK2(JH1domain-catalytic)", "%", 5),
    ("NC(=O)Nc1sc(-c2ccc(F)cc2)cc1C(N)=O", "TYK2(JH1domain-catalytic)", "%", 98.6),
    ("Cc1ccc(C(=O)Nc2ccc(Oc3ccc4nc(NC(=O)C5CC5)cn4c3)c(F)c2)c(=O)n1-c1ccccc1", "TYK2(JH1domain-catalytic)", "%", 20),
    ("C[C@@H](Oc1cc(-n2cnc3ccc(-c4ccncc4)cc32)sc1C(N)=O)c1ccccc1Cl", "TYK2(JH1domain-catalytic)", "%", 18),
    ("CCNCC(Cc1ccccc1)NC(=O)c1cc(Br)c(-c2ccnc3[nH]ccc23)s1.Cl.Cl (stereo not drawn)", "TYK2(JH1domain-catalytic)", "%", 46),
    ("O=C(NOCC1CC1)c1cc(Br)c(F)c(F)c1Nc1ccc(I)cc1Cl", "TYK2(JH1domain-catalytic)", "%", 0),
]

----------
Test system: ERBB4
Settings: concentration: 1 μM,replicates: in singlicate; n = 1
Quick rule: %Inh of at least 3% means fulfilled, below that means not fulfilled.

# compound, class
records = [
    ("Cc1ccn2nc(-c3ccc(F)cc3)c(-c3ccncc3)c2c1.Cl", "fulfilled"),
    ("CC(C(=O)NC1CCN(c2ccnc(Nc3ccc(F)cc3)n2)C1)c1ccc(Cl)cc1 (stereo not drawn)", "not fulfilled"),
    ("Cn1ccc2ncnc(Oc3ccc(NC(=O)Nc4cc(C(C)(C)C)on4)c(Cl)c3)c21", "not fulfilled"),
    ("Cc1nnc(-c2ccc3occ(-c4ccc(S(C)=O)cc4)c3n2)o1 (stereo not drawn)", "not fulfilled"),
    ("CC(C)c1nc(-c2cccc(NS(=O)(=O)c3ccccc3)c2)c(-c2ccnc(Nc3ccc4c(c3)CN(C)CC4)n2)s1", "fulfilled"),
    ("O=C1NCCc2[nH]c(-c3ccncc3)cc21", "not fulfilled"),
    ("CN(c1ccccc1CNc1nc(Nc2ccc3c(c2)CC(=O)N3)ncc1C(F)(F)F)S(C)(=O)=O", "not fulfilled"),
    ("C[C@@H](Oc1cc(-n2cnc3cc(-c4cnn(C)c4)ccc32)sc1C(N)=O)c1ccccc1Cl", "not fulfilled"),
    ("Cc1n[nH]c2cc(Nc3ccnc(Nc4cccc(CN5CCOCC5)c4)n3)ccc12", "fulfilled"),
    ("Cc1cccc(-c2nc(Nc3ccncc3)c3sccc3n2)n1", "fulfilled"),
    ("Cn1ccc2ncnc(Oc3ccc(NC(=O)Nc4cnn(C(C)(C)C)c4)c(Cl)c3)c21", "fulfilled"),
    ("C[C@@H](Oc1cc(-n2cnc3cc(-c4ccncc4)ccc32)sc1C(N)=O)c1ccccc1Cl", "not fulfilled"),
    ("COc1cc2ncn(-c3cc(OCC4CCCCC4)c(C(N)=O)s3)c2cc1OC", "not fulfilled"),
    ("CS(=O)(=O)c1cccc(CNc2nc(Nc3ccc4c(c3)[C@@H]3C[C@@H]4CNC3=O)ncc2C(F)(F)F)c1", "fulfilled"),
    ("O=C(Nc1n[nH]c2cc(-c3ccco3)ccc12)C1CC1", "not fulfilled"),
    ("O=C(NOCC1CC1)c1cc(Br)c(F)c(F)c1Nc1ccc(I)cc1Cl", "not fulfilled"),
    ("Cc1ccc(CC(=O)N2CCc3cc(-c4cn(C)c5ncnc(N)c45)ccc32)cc1", "fulfilled"),
]
